The following are reported pIC50 results, target or system BTK (Homo sapiens, UniProt Q06187).
pIC50: −log10 of the molar value.

Example results:
Cn1cc(-c2cn3nccc3c(-c3ccc(CNC(=O)c4coc(C(C)(C)C)n4)cc3F)n2)cn1
8.00 to 9.00
Cn1cc(-c2cn3nccc3c(-c3ccc(CNC(=O)c4coc(C(C)(C)C)n4)c(F)c3F)n2)cn1
> 9.00
Cn1cc(-c2cc3nccn3c(-c3ccc(CNC(=O)c4cn(C(C)(C)C)nn4)cc3)n2)cn1
8.00 to 9.00
Cn1cc(-c2cn3nccc3c(-c3ccc(CNC(=O)c4nnn(C(C)(C)C)n4)cc3)n2)cn1
> 9.00
Cn1cc(-c2cn3nccc3c(N3CCC(CN4CCN(CC(C)(C)C)CC4=O)CC3)n2)cn1
6.00 to 8.00

Tested system BTK (Homo sapiens, UniProt Q06187); pIC50 recorded for Cc1cc(-c2nc(-c3cnn(C)c3)cn3nccc23)ccc1CNC(=O)c1ccn(C(C)(C)C)n1 was 8.00 to 9.00

Reading of pIC50 for Cn1cc(-c2cc(-c3ccc(CNC(=O)c4cnn(C(C)(C)C)c4)cc3)n3cnnc3c2)cn1 with BTK (Homo sapiens, UniProt Q06187): 6.00 to 8.00

---

Tested on: CD69 expression on CD19+ B cells in human whole blood
measurement.notes: In Vitro whole blood CD69 Assay
Type: cell-based
details: B-cell; human heparinized whole blood, anti-human IgD stimulation overnight, CD19+ B cells, flow cytometry; read-out: In Vitro HWB CD69 Assay IC50 Score
readout.label: IC50

Cc1cc(-c2nc(-c3cnn(C)c3)cc3nccn23)ccc1CNC(=O)c1noc(C(C)(C)C)n1
< 1000 nM
Cc1cc(-c2nccn3nccc23)ccc1CNC(=O)c1noc(C(C)(C)C)n1
1000 to 10000 nM
Cn1cc(-c2cn3nccc3c(-c3ccc(CNC(=O)c4nnn(C(C)(C)C)n4)cc3)n2)cn1
< 1000 nM
Cn1cc(-c2cn3nccc3c(-c3ccc(CNC(=O)c4cnn(C(C)(C)C)n4)c(F)c3F)n2)cn1
< 1000 nM
Cn1cc(-c2cn3nccc3c(-c3ccc(CNC(=O)c4coc(C(C)(C)C)n4)cc3F)n2)cn1
1000 to 10000 nM

Entry Cc1cc(-c2nc(N3CCN(C)CC3)cn3nccc23)ccc1CNC(=O)c1nnn(C(C)(C)C)n1 ; IC50 = 1000 to 10000 nM

Lab note: Cn1cc(-c2cn3ncnc3c(N3CCC(CNC(=O)c4nnn(C(C)(C)C)n4)CC3)n2)cn1 gave IC50 of 1000 to 10000 nM

The reported IC50 of the molecule Cc1cc(-c2nc(-c3cnn(C)c3)cn3nccc23)ccc1CN1CCN(CC(C)C)C(C)C1=O (stereo not drawn) was 1000 to 10000 nM

---

System: CD69 expression on CD19+ B cells in human whole blood
measurement.notes: In Vitro whole blood CD69 Assay
Type: cell-based
details: B-cell; human heparinized whole blood, anti-human IgD stimulation overnight, CD19+ B cells, flow cytometry; read-out: In Vitro HWB CD69 Assay IC50 Score
readout.label: IC50

Some entries whose results are on file:
Cn1cc(-c2cn3nccc3c(-c3ccc(CNC(=O)c4cnn(C(C)(C)C)c4)cc3)n2)cn1
< 1 µM
Cn1cc(-c2cn3nccc3c(-c3ccc(CNC(=O)c4cn(C(C)(C)C)nn4)c(C(F)F)c3)n2)cn1
< 1 µM
Cc1c(CNC(=O)c2noc(C(C)(C)C)n2)ccc(-c2nc(-c3cnn(C)c3)cn3nccc23)c1F
< 1 µM

// recorded IC50 for Cn1cc(-c2cn3nccc3c(-c3ccc(CN4CCN(CC(C)(C)C)CC4=O)c(F)c3)n2)cn1 : 1 to 10 µM

Reported IC50 of Cn1cc(-c2cn3nccc3c(N3CC[C@H](CNC(=O)c4cn(C(C)(C)C)nn4)[C@H](F)C3)n2)cn1 : 1 to 10 µM

For Cn1cc(-c2cn3nccc3c(-c3ccc(CNC(=O)c4ccn(C(C)(C)C)n4)cc3)n2)cn1 the compound record lists IC50 as 1 to 10 µM

Form: compound = Cc1cc(-c2nc(-c3cnn(C)c3)cn3nccc23)ccc1CNC(=O)c1cn(C(C)(C)C)nn1 ; IC50 = < 1 µM

Form: compound = Cc1cc(-c2nc(-c3cnn(C)c3)cn3nccc23)ccc1CN1CCN(CC(C)(C)C)CC1=O ; IC50 = 1 to 10 µM

---

Test system: CD69 expression on CD19+ B cells in human whole blood
measurement.notes: In Vitro whole blood CD69 Assay
Format: cell-based
details: B-cell; human heparinized whole blood, anti-human IgD stimulation overnight, CD19+ B cells, flow cytometry; read-out: In Vitro HWB CD69 Assay IC50 Score
pIC50: −log10 of the molar value.
readout.label: pIC50

Below, each entry is followed by its recorded pIC50 result.
Cn1cc(-c2cn3nccc3c(-c3ccc(CNC(=O)c4cnn(C(C)(C)C)c4)c(F)c3)n2)cn1
> 6.00
Cn1cc(-c2cn3nccc3c(N3CC[C@@H](CNC(=O)c4noc(C(C)(C)C)n4)C(F)(F)C3)n2)cn1 (single isomer, unassigned)
> 6.00
Cn1cc(-c2cn3nccc3c(-c3ccc(CNC(=O)c4cnn(C(C)(C)C)n4)cc3)n2)cn1
5.00 to 6.00
Cn1cc(-c2cn3nccc3c(-c3ccc(CNC(=O)c4nc(C(C)(C)C)no4)cc3F)n2)cn1
> 6.00
Cn1cc(-c2cn3nccc3c(-c3ccc(CNC(=O)c4ccn(C(C)(C)C)n4)c(F)c3F)n2)cn1
5.00 to 6.00

So, Cn1cc(-c2cn3nccc3c(-c3ccc(CNC(=O)c4nnn(C(C)(C)C)n4)cc3F)n2)cn1 ? Its pIC50 was > 6.00

---

assayed.system: BTK (Homo sapiens, UniProt Q06187)
Sequence (Q06187 whole entry): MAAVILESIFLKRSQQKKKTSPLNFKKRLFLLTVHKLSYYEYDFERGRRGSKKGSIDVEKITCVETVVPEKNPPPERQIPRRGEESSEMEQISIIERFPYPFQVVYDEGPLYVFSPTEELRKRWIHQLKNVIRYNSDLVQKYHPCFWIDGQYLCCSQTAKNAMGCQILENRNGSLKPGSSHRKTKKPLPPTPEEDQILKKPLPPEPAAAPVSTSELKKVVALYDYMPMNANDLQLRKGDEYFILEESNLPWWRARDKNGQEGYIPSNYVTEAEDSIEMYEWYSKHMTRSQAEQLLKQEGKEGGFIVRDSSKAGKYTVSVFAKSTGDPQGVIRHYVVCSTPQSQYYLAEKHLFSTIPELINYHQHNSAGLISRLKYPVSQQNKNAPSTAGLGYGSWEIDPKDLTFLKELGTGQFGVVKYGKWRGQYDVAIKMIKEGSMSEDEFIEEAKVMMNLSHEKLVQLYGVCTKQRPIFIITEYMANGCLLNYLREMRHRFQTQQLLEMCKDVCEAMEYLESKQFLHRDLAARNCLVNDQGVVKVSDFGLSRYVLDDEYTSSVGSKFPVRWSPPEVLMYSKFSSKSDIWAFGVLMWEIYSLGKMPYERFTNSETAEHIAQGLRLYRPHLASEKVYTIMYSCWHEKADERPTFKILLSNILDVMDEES
Structures can show the parent of a compound that is named as a salt.
readout.label: IC50

Cn1cc(-c2cn3nccc3c(N3CCC4(CC(NC(=O)c5noc(C(C)(C)C)n5)C4)C3)n2)cn1 (single isomer, unassigned) [Example 54]
1000 to 10000 nM
CCCN1CCN(CC2CCN(c3nc(-c4cnn(C)c4)cn4nccc34)CC2)C(=O)C1 [Example 170, hydrochloride]
1000 to 10000 nM
Cn1cc(-c2cn3nccc3c(-c3ccc(CNC(=O)c4nnn(C(C)(C)C)n4)cc3F)n2)cn1 [Example 114]
< 1 nM

With those in mind, consider the next compound.
Measured IC50 of Cc1cc(-c2nc(-c3cnn(C)c3)cn3nccc23)ccc1CN1CCN(CC(C)C)C(C)C1=O (stereo not shown) [Example 36] : 1 to 10 nM

---

IC50 reference
Test system: CD69 expression on CD19+ B cells in human whole blood
measurement.notes: In Vitro whole blood CD69 Assay
Format: cell-based
details: B-cell; human heparinized whole blood, anti-human IgD stimulation overnight, CD19+ B cells, flow cytometry; read-out: In Vitro HWB CD69 Assay IC50 Score

Field: example entries. Status: answers known.
Cn1cc(-c2cn3ncnc3c(N3CCC(CNC(=O)c4cn(C(C)(C)C)nn4)CC3)n2)cn1
1000 to 10000 nM
CC(C)(C)c1nc(C(=O)NCc2ccc(-c3nc(N4CCOCC4)cn4nccc34)cc2)no1
1000 to 10000 nM

Let's switch to this compound now.
# IC50 (compound: Cn1cc(-c2cn3nccc3c(-c3ccc(CNC(=O)c4nnn(C(C)(C)C)n4)c(C(F)F)c3)n2)cn1 ) is < 1000 nM

---

Attribute: pIC50
assayed.system: BTK (Homo sapiens, UniProt Q06187)
pIC50: −log10 of the molar value.

Below, 2 molecules whose answers are already recorded.
Cn1cc(-c2cn3nccc3c(-c3ccc(CNC(=O)c4nnc(C(C)(C)C)o4)c(F)c3)n2)cn1
> 9.00
Cc1cc(-c2cc(-c3cnn(C)c3)cn3nccc23)ccc1CNC(=O)c1noc(C2(C)CC2)n1
> 9.00

API: the following record is the query input.
Notebook: Cc1cc(-c2nc(-c3cnn(C)c3)cn3nccc23)ccc1CNC(=O)c1cnn(C(C)(C)C)c1 , pIC50 read as > 9.00

---

Structures can show the parent of a compound that is named as a salt.
A short record of IC50 observed with BTK (Homo sapiens, UniProt Q06187) follows.

C[C@H]1C[C@@H](CNC(=O)c2cn(C(C)(C)C)nn2)CCN1c1nc(-c2cnn(C)c2)cn2nccc12 (single isomer, unassigned)
0.01 to 1 µM
C[C@@H]1C(c2nc(C(=O)NCc3ccc(-c4nc(-c5cnn(C)c5)cc5nccn45)cc3)no2)[C@@H]1C (mixture of isomers)
0.001 to 0.01 µM

Form field IC50 for item Cn1cc(-c2cn3nccc3c(-c3cc(F)c(CNC(=O)c4cnn(C(C)(C)C)n4)cc3F)n2)cn1 on BTK (Homo sapiens, UniProt Q06187): 0.001 to 0.01 µM

Sample Cn1cc(-c2cn3nccc3c(-c3ccc(CNC(=O)c4nnn(C(C)(C)C)n4)nc3)n2)cn1 , system: BTK (Homo sapiens, UniProt Q06187). Its IC50 is 0.001 to 0.01 µM

IC50 on BTK (Homo sapiens, UniProt Q06187) for Cc1cc(-c2nc(-c3cnn(C)c3)cn3nccc23)ccc1CNC(=O)c1nnc(C(C)(C)C)o1 is < 0.001 µM

The reported BTK (Homo sapiens, UniProt Q06187) IC50 of Cc1cc(-c2nc(-c3cnn(C)c3)cn3nccc23)ccc1CN1CCN(C2COC2)C(C)C1=O (centres unmarked) is 0.01 to 1 µM

The reported IC50 value, BTK (Homo sapiens, UniProt Q06187), for Cn1cc(-c2cn3nccc3c(N3CCC(F)(CNC(=O)c4cn(C(C)(C)C)nn4)CC3)n2)cn1 [Example 162, trifluoroacetate] reads 0.01 to 1 µM

Here Cn1cc(-c2cn3nccc3c(N3CCC4(CC(NC(=O)c5noc(C(C)(C)C)n5)C4)C3)n2)cn1 (centres unmarked) [Example 52] was tested on BTK (Homo sapiens, UniProt Q06187), and its IC50 came to 1 to 10 µM
